# Assayed System: Human M4 (Homo sapiens, UniProt P08173)
# Construct: expressed in transfected cells
# Sequence (P08173 1-479): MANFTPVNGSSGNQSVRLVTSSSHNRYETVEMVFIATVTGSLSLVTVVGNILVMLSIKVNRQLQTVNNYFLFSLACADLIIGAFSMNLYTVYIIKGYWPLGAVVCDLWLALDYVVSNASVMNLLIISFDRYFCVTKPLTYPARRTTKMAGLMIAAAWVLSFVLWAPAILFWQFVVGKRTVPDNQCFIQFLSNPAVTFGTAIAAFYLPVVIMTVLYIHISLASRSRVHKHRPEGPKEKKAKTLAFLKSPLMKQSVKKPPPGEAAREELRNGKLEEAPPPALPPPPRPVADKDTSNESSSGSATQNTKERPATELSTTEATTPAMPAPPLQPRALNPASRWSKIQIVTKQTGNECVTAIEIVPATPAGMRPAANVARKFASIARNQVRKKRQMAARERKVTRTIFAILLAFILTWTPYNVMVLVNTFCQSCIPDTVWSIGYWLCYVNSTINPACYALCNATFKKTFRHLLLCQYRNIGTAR
# Assay: mAChR M4 cell-based functional assay (calcium flux, potentiation of EC20 acetylcholine response), hM4-Gqi5 CHO-K1 cells
# Measurement Context: CHO-K1; Table 3; Human M4; % ACh maximum at 30 μM; read-out: Emax (% ACh maximum at 30 μM)
Items are presented alongside their recorded Emax at 30 µM.
Kindly provide the numeric value in % only, without the unit symbol.

Use these answered entries as a reference point.
Compound	Outcome Measure	Experimental Result
Cc1c(N2CCc3ncc(-c4ccc(N5CCCC5)nc4)cc3C2)nn2cnnc2c1C [Compound 207]	Emax at 30 µM	73
Cc1c(N2CCc3ncc(N4CCCC4)cc3C2)nn2c(C(F)(F)F)nnc2c1C [Compound 275]	Emax at 30 µM	74
Cc1c(N2CCc3ncc(-c4ccc(N(C)C)nc4)cc3C2)nn2c(C(F)(F)F)nnc2c1C [Compound 241]	Emax at 30 µM	61
Cc1cc2nncn2nc1N1CCc2ncc(Oc3cc(F)ccc3F)cc2C1 [Compound 295]	Emax at 30 µM	109
Cc1c(N2CCc3ncc(Oc4cccc(F)c4)cc3C2)nn2cnnc2c1C [Compound 160]	Emax at 30 µM	111
Cc1c(N2CCc3ncc(C(F)(F)F)cc3C2)nn2c(Cl)nnc2c1C [Compound 268]	Emax at 30 µM	95

Request: Would you kindly share the measured Emax at 30 µM for Cc1c(N2CCc3ncc(-c4ccc(C(F)(F)F)nc4)cc3C2)nn2c(C(F)(F)F)nnc2c1C [Compound 259] ?
Response: 55

Request: Item: Cc1ccc(Oc2cnc3c(c2)CN(c2nn4cnnc4c(C)c2C)CC3)c(F)c1 [Compound 289]
Response: 102

Request: Item: Cc1c(N2CCc3ncc(OCC4CC4(F)F)cc3C2)nn2cnnc2c1C (centres unmarked) [Compound 266]
Response: 93

Request: Item: Cc1nc(C)c(-c2cnc3c(c2)CN(c2nn4cnnc4cc2C)CC3)s1 [Compound 195]
Response: 89

Request: Item: Cc1c(N2CCc3ncc(C(=O)Nc4ccccc4F)cc3C2)nn2c(C(F)(F)F)nnc2c1C [Compound 226]
Response: 79

Request: Item: Cc1c(N2CCc3ncc(NC4CCOC4)cc3C2)nn2c(C(F)(F)F)nnc2c1C (centres unmarked) [Compound 279]
Response: 86

Request: Item: Cc1c(N2CCc3ncc(N4CCOC(C)(C)C4)cc3C2)nn2c(C(F)(F)F)nnc2c1C [Compound 286]
Response: 94
